test system: NCI-H460; assay: Anti-proliferative activity, sulphorodamine B test; assay type: cell-based; details: Homo sapiens, 24 h exposure, 48 h recovery
measured.quantity: pIC50
Give bare numbers, as −log10 of the molar value.

# input Field: pIC50 (NCI-H460). Entry: C[C@H]1[C@@H](O)O[C@@H]2O[C@@]3(C)CC[C@H]4[C@H](C)CC[C@@H]1[C@@]24OO3 [DHA, dihydroartemisinin]
# output 5.09

###

System: A2780
Experiment: Anti-proliferative activity, sulphorodamine B test
Assay type: cell-based
Details: Homo sapiens, 24 h exposure, 48 h recovery
Description: The biological activity of DHA and ART on tumour cells survival was evaluated. […] Cell survival was determined as optical density at 540 nm by means of a Multiskan spectrofluorimeter. The amount of cells killed was expressed as the percentage decrease in sulphorodamine B binding compared to control cultures. […]
measured.quantity: pIC50
Numbers only, as −log10 of the molar value.

# input Fill in the blank: the reported pIC50 of C[C@H]1[C@@H](O)O[C@@H]2O[C@@]3(C)CC[C@H]4[C@H](C)CC[C@@H]1[C@@]24OO3 [DHA, dihydroartemisinin] is ____.
# output 6.64
